# EXPERIMENTAL TARGET: Neprilysin (Homo sapiens)
# Sequence (P08473 whole entry): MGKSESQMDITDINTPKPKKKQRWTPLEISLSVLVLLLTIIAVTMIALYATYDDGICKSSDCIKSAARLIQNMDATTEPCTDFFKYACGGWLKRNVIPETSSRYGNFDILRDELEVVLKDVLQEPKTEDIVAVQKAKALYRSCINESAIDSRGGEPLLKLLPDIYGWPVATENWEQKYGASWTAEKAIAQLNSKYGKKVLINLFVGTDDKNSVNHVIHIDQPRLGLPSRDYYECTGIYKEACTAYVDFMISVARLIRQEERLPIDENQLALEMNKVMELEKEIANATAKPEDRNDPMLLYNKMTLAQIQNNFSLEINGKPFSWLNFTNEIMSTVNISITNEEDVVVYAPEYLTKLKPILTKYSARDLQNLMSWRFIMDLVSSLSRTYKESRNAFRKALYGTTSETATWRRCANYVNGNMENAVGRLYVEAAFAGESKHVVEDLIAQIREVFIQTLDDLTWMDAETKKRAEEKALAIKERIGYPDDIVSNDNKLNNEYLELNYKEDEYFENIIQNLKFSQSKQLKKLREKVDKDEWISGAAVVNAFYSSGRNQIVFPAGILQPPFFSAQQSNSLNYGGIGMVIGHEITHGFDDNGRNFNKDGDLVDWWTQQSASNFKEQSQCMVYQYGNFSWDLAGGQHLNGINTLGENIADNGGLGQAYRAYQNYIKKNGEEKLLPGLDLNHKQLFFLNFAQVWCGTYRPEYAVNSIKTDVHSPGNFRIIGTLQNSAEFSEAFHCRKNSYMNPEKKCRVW
# PROCEDURE TEXT: Compound was evaluated for inhibition of recombinant human neprilysin(NEP).
PROPERTY MEASURED: Ki

{"GIVEN SMILES": "O=C(O)CNC(=O)/C(=C\\c1ccccc1)CS", "Ki": "4.9 nM"}
{"GIVEN SMILES": "O=C(O)CNC(=O)C1(CS)Cc2ccccc2C1", "Ki": "162 nM"}
{"GIVEN SMILES": "O=C(O)CNC(=O)C(CS)(Cc1ccccc1)Cc1ccccc1", "Ki": "> 100 nM"}

Form: molecule = "O=C(O)CNC(=O)/C(=C/c1ccccc1)CS" ; Ki = 408 nM
